Numbers sourced from patent US20250313535A1.

The molecules listed here are annotated with their IC50.
EXPERIMENTAL_TARGET: α4β1 integrin (Homo sapiens (Human), UniProt P05556+P13612)
Sequence (P13612 34-1032): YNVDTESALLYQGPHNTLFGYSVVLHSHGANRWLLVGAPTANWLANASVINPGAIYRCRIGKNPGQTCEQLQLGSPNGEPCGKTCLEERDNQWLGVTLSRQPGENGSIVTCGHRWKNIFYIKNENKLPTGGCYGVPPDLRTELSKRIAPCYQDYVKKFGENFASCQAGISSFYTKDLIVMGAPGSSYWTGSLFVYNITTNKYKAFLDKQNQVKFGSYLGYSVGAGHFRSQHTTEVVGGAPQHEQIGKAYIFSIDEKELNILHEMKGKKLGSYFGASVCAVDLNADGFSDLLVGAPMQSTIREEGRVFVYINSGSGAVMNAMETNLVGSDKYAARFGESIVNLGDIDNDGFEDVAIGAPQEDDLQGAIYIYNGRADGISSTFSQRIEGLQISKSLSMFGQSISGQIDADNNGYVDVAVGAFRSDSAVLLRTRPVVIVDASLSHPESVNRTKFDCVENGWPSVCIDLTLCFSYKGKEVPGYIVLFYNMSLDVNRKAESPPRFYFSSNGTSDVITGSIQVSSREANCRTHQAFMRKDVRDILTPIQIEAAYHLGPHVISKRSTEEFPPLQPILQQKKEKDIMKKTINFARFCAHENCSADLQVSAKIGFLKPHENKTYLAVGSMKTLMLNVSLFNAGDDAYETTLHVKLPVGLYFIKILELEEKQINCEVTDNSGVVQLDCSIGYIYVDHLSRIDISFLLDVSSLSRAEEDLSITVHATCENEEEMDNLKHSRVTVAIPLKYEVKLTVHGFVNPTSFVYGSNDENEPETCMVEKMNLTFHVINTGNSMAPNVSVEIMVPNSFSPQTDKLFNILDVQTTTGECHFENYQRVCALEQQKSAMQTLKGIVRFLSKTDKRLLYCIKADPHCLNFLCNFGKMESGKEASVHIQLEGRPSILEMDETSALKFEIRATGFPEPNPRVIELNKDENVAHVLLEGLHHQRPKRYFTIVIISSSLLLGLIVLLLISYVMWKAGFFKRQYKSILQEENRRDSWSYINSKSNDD
Sequence (P05556 21-798): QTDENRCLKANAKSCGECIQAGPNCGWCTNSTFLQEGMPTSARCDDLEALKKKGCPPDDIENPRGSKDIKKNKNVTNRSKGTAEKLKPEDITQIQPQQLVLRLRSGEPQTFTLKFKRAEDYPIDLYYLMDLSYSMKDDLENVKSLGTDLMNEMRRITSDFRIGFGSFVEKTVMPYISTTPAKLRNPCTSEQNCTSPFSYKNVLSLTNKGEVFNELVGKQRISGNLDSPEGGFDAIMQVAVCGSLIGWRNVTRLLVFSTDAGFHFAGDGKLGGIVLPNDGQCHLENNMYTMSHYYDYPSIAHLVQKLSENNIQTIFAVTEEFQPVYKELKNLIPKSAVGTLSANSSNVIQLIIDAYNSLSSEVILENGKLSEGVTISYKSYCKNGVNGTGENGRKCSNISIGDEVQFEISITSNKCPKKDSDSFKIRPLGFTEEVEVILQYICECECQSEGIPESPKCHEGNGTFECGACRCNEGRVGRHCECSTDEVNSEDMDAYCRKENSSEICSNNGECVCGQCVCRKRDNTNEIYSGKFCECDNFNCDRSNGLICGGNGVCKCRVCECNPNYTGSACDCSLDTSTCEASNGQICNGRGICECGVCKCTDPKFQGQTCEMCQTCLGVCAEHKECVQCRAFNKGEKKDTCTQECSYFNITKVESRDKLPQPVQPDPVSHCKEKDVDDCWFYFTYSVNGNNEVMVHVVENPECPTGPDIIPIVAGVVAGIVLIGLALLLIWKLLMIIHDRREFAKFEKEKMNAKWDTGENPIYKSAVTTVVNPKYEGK
EXPERIMENTAL_DETAILS: Integrin Adhesion Assay: Protocol 5 (VCAM-coated plate, RPMI-8866 cells with stable LOF mutation of the ITGB7 gene)
Type: cell-based
EXPERIMENTAL_PARAMETERS: RPMI-8866 cells with stable LOF mutation of the ITGB7 gene; read-out: Mean IC50 α4β1 KO^b
Excerpt: Integrin Adhesion Assay Using Genetically Modified Cells Generating Stable Cell Lines with ITGB1 or ITGB7 Knockout (Protocol 4 and Protocol 5) […] To generate an individual clones of cells deficient in either ITGB7 or ITGB1 by limiting dilution assay, the transfected cells were resuspended at 5 cells/mL and seeded in 384 well plates. Outgrowth of clones was monitored using a microscope, and 24 clones were transferred for expansion. […]

| MOLECULE | EXPERIMENTAL_TARGET | IC50 |
| --- | --- | --- |
| N#CC1(C(=O)N[C@@H](Cc2cccc3c(-c4ncc(CN5CCCCC5)c5ccccc45)cccc23)C(=O)O)CCN(CC(F)(F)F)CC1 | α4β1 integrin (Homo sapiens (Human), UniProt P05556+P13612) | > 1000 nM |

Need IC50, item "Cn1c(=O)c(-c2cccc3c(C[C@H](NC(=O)[C@]4(C)CC[C@@H](N5CCOC[C@@H]5C(F)(F)F)CC4)C(=O)O)cccc23)c(C(F)(F)F)c2ccccc21"
> 1000 nM

Record request: IC50 value, item CC1OCCC1N1CCC(C(=O)N[C@@H](Cc2cccc3c(-c4c(C(F)(F)F)c5ccccc5n(C)c4=O)cccc23)C(=O)O)(C(F)(F)F)CC1 (stereo partly drawn)
100 to 1000 nM

Which IC50 value is on record for "CCN(CC)Cc1ccc(OC)c(-c2cccc3c(C[C@H](NC(=O)c4c(C)cccc4F)C(=O)O)cccc23)c1OC" ?
100 to 1000 nM

Recorded IC50 of "COc1ccc(CN(C)C)c(OC)c1-c1cccc2c(C[C@H](NC(=O)c3c(C)cccc3F)C(=O)O)cccc12" , please.
100 to 1000 nM

Look up IC50 for this molecule: "COc1ccc(CN2CCC(C(F)(F)F)CC2)c(OC)c1-c1cccc2c(C[C@H](NC(=O)c3c(C)cccc3F)C(=O)O)cccc12"
100 to 1000 nM

---

EXPERIMENTAL_TARGET: α4β7 integrin (Homo sapiens (Human), UniProt P13612+P26010)
Sequence (P13612 34-1032): as the sequence (P13612 34-1032) above
Sequence (P26010 20-798): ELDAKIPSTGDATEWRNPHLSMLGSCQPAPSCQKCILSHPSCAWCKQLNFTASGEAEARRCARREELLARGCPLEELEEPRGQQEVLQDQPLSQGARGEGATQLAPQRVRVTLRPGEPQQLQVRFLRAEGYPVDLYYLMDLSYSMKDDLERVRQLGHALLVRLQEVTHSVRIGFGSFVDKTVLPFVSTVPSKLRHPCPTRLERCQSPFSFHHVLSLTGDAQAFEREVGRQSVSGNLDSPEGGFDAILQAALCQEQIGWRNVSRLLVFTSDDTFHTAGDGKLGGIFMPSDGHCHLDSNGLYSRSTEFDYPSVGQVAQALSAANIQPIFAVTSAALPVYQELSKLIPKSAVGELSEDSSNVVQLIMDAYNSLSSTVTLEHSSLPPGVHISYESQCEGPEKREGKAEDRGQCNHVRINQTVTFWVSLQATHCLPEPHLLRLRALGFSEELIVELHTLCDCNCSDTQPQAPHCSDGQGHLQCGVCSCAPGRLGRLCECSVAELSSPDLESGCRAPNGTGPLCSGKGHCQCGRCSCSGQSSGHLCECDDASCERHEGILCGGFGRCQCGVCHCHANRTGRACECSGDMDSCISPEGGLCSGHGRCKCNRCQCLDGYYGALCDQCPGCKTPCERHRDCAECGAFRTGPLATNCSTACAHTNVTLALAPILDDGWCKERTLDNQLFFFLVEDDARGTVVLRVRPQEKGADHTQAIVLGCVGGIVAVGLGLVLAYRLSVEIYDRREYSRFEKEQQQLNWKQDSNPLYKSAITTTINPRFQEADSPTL
EXPERIMENTAL_DETAILS: Integrin Adhesion Assay: Protocol 4 (MAdCAM-coated plate, RPMI-8866 cells with stable LOF mutation of the ITGB1 gene)
Type: cell-based
EXPERIMENTAL_PARAMETERS: RPMI-8866 cells with stable LOF mutation of the ITGB1 gene; read-out: Mean IC50 α4β7 KO^a
ASSAY_READOUT: IC50

# lookup: IC50 of "COc1ccc(CN2CCCCC2)c(OC)c1-c1cccc2c(C[C@H](NC(=O)c3c(F)cccc3Br)C(=O)O)cccc12"
< 10 nM

Which value of IC50 has been reported for "COc1ccc(CN2CCC(F)(F)CC2)c(OC)c1-c1cccc2c(C[C@H](NC(=O)c3c(C)cccc3F)C(=O)O)cccc12" in the records?
10 to 100 nM

So what's the measured IC50 for this one? "COc1ccc(CN2CCCC(F)(F)CC2)c(OC)c1-c1cccc2c(C[C@H](NC(=O)c3c(C)cccc3F)C(=O)O)cccc12"
< 10 nM

Reported IC50 for "COc1ccc(CN2CCCCC2)c(OC)c1-c1cccc2c(C[C@H](NC(=O)c3c(C)cccc3F)C(=O)O)cccc12" : what is it?
< 10 nM

Would you mind telling me what IC50 value was observed for COc1ccc(CN2CCCC2C)c(OC)c1-c1cccc2c(C[C@H](NC(=O)c3c(C)cccc3F)C(=O)O)cccc12 (stereo partly shown) ?
< 10 nM

---

EXPERIMENTAL_TARGET: α4β1 integrin (Homo sapiens (Human), UniProt P05556+P13612)
EXPERIMENTAL_DETAILS: Integrin Adhesion Assay: Protocol 5 (VCAM-coated plate, RPMI-8866 cells with stable LOF mutation of the ITGB7 gene)
Format: cell-based
EXPERIMENTAL_PARAMETERS: Protocol 5; RPMI-8866 cells with LOF mutation of ITGB7, VCAM; read-out: Mean IC50 α4β1 KO
pIC50: −log10 of the molar value.
ASSAY_READOUT: pIC50

Previously resolved entries follow.
| MOLECULE | pIC50 |
| --- | --- |
| O=C(O)[C@H](Cc1cccc2c(-c3ncc(CN4CC5CCC(C4)O5)c4ccccc34)cccc12)NC(=O)C1(C(F)(F)F)CCN(CC(F)(F)F)CC1 [Compound 872] | < 6.00 |
| O=C(O)[C@H](Cc1cccc2c(-c3ncc(CCN4CCCCC4)c4ccccc34)cccc12)NC(=O)C1(C(F)(F)F)CCN(CC(F)(F)F)CC1 [Compound 962] | < 6.00 |
| COc1cc(CN2CCCCC2)cc(OC)c1-c1cccc2c(C[C@H](NC(=O)C3(C(F)(F)F)CCN(CC(F)(F)F)CC3)C(=O)O)cccc12 [Compound 794] | 6.00 to 7.00 |
| COc1cccc(CCN2CCC(C)C(F)(F)CC2)c1-c1cccc2c(C[C@H](NC(=O)C3(C(F)(F)F)CCN(CC(F)(F)F)CC3)C(=O)O)cccc12 (stereo partly drawn) [Compound 972] | 6.00 to 7.00 |
| CC1(C)CCN(Cc2ccc(-c3cccc4c(C[C@H](NC(=O)C5(C(F)(F)F)CCN(CC(F)(F)F)CC5)C(=O)O)cccc34)c3cnccc23)CC1 [Compound 986] | 6.00 to 7.00 |
| COc1ccc(CCN2CCCCC2)cc1-c1cccc2c(C[C@H](NC(=O)c3c(C)cccc3F)C(=O)O)cccc12 [Compound 1001] | < 6.00 |
| O=C(O)[C@H](Cc1cccc2c(-c3ncc(CN4CCC(F)CC4)c4ccccc34)cccc12)NC(=O)C1(C(F)(F)F)CCN(CC(F)(F)F)CC1 [Compound 871] | < 6.00 |
| COc1ccc(CN2CC(F)C2)c(OC)c1-c1cccc2c(C[C@H](NC(=O)C3(C(F)(F)F)CCN(CC(F)(F)F)CC3)C(=O)O)cccc12 [Compound 781] | < 6.00 |
| COc1ccc2c(c1-c1cccc3c(C[C@H](NC(=O)c4c(C)cccc4F)C(=O)O)cccc13)CN(CC(F)F)CC2 [Compound 995] | 6.00 to 7.00 |
| COc1ccc2cc(CN3CCCCC3)cnc2c1-c1cccc2c(C[C@H](NC(=O)C3(C(F)(F)F)CCN(CC(F)(F)F)CC3)C(=O)O)cccc12 [Compound 733] | 6.00 to 7.00 |

Fill in: pIC50 of Cc1cccc(F)c1C(=O)N[C@@H](Cc1cccc2c(-c3c(C(F)(F)F)c4cc(CCN5CCC(F)(F)C5)ccc4n(C)c3=O)cccc12)C(=O)O [Compound 712] is ___
< 6.00

Any idea what pIC50 was measured for COc1cc2c(cc1-c1cccc3c(C[C@H](NC(=O)c4c(C)cccc4F)C(=O)O)cccc13)CN(CC(F)F)CC2 [Compound 1006] ?
6.00 to 7.00

---

EXPERIMENTAL_TARGET: α4β7 integrin (Homo sapiens (Human), UniProt P13612+P26010)
EXPERIMENTAL_DETAILS: Integrin Adhesion Assay: Protocol 1 (MAdCAM-coated plate, RPMI-8866 cells, CellTiter GLO readout)
Type: cell-based
pIC50: −log10 of the molar value.
Overview of reported pIC50 across a group of compounds:

Below are worked cases with known answers.
| MOLECULE | EXPERIMENTAL_TARGET | ASSAY_READOUT | MEASUREMENT |
| --- | --- | --- | --- |
| Cc1cccc(C)c1-c1cc(C(=O)N[C@@H](Cc2cccc3c(-c4c(C(F)(F)F)c5ccccc5n(C)c4=O)cccc23)C(=O)O)c(F)c(C(F)(F)F)c1 | α4β7 integrin (Homo sapiens (Human), UniProt P13612+P26010) | pIC50 | < 6.00 |
| Cc1n[nH]c(C)c1-c1cc(F)c(C(=O)N[C@@H](Cc2cccc3c(-c4c(C(F)(F)F)c5ccccc5n(C)c4=O)cccc23)C(=O)O)c(F)c1 | α4β7 integrin (Homo sapiens (Human), UniProt P13612+P26010) | pIC50 | 7.00 to 8.00 |

Now look at this entry.
Form: Entry = "Cc1cccc(C)c1-c1nc(C)c(C(=O)N[C@@H](Cc2cccc3c(-c4c(C(F)(F)F)c5ccccc5n(C)c4=O)cccc23)C(=O)O)n1C" | System = α4β7 integrin (Homo sapiens (Human), UniProt P13612+P26010) | pIC50 = ____
7.00 to 8.00

---

EXPERIMENTAL_TARGET: α4β7 integrin (Homo sapiens (Human), UniProt P13612+P26010)
EXPERIMENTAL_DETAILS: Integrin Adhesion Assay: Protocol 4 (MAdCAM-coated plate, RPMI-8866 cells with stable LOF mutation of the ITGB1 gene)
Type: cell-based
EXPERIMENTAL_PARAMETERS: RPMI-8866 cells with stable LOF mutation of the ITGB1 gene; read-out: Mean IC50 α4β7 KO^a
pIC50: −log10 of the molar value.
ASSAY_READOUT: pIC50

Previously resolved entries follow.
| COMPOUND | pIC50 |
| --- | --- |
| Cn1c(=O)c(-c2cccc3c(C[C@H](NC(=O)c4c(F)cc(N5CC6(COC6)C5)cc4F)C(=O)O)cccc23)c(C(F)(F)F)c2ccccc21 | 6.00 to 7.00 |
| Cn1c(=O)c(-c2cccc3c(C[C@H](NC(=O)C4(C(F)(F)F)CCN(C5COC(C(F)(F)F)C5)CC4)C(=O)O)cccc23)c(C(F)(F)F)c2ccccc21 (stereo partly drawn) | 6.00 to 7.00 |
| CC1(C)CCN(Cc2cccc3c(-c4cccc5c(C[C@H](NC(=O)C6(C(F)(F)F)CCN(CC(F)(F)F)CC6)C(=O)O)cccc45)nccc23)CC1 | > 8.00 |
| CCOCc1cc(OC)c(-c2cccc3c(C[C@H](NC(=O)C4(C(F)(F)F)CCN(C5COC5)CC4)C(=O)O)cccc23)c(OC)c1 | > 8.00 |
| O=C(O)[C@H](Cc1cccc2c(-c3nccc4c(CN5CCOCC5)cccc34)cccc12)NC(=O)C1(C(F)(F)F)CCN(CC(F)(F)F)CC1 | > 8.00 |

Consider now this further compound.
Requested read-out pIC50, target or system α4β7 integrin (Homo sapiens (Human), UniProt P13612+P26010), entry "Cc1cccc(F)c1C(=O)N[C@@H](Cc1cccc2c(-c3c(C(F)(F)F)c4cc(CN(C)C)ccc4n(C)c3=O)cccc12)C(=O)O"
> 8.00
